# Tested on: M14 melanoma
# protocol-description: NCI-60 one-dose screen, 48 h (100 = growth as untreated, 0 = no growth, -100 = all killed)
# applied-conditions: 10 µM unless noted
Compounds without any hit were thinned out: in the full panel of roughly 83,000, 20% have a hit.
Each item that follows carries a reported growth.

| molecule | test-system | growth (%) |
| --- | --- | --- |
| COc1ccc2c(c1)C/C(=C\c1cc(-c3cc(OC)c(OC)c(OC)c3)n[nH]1)C2=O | M14 melanoma | 100 |
| c1ccc(-c2nc(Nc3ccc(-c4nc5ccccc5[nH]4)cc3)nc(N3CCOCC3)n2)cc1 | M14 melanoma | -80.7 |
| COc1cc(/C=C/c2cc(/C=C/c3ccc(O)c(OC)c3)n(-c3ccccc3)c(=O)n2)ccc1O | M14 melanoma | 85.7 |
| COc1cc(OC)c2c(c1)c1nc3cc(C)c(C)cc3nc1n2CCN(C)C | M14 melanoma | 84.2 |
| CN1CCN(c2ccc3nc(-c4[nH]ncc4Nc4ncnc5c4OCCCN5)[nH]c3c2)CC1 | M14 melanoma | -74.9 |
| CCCCC[C@H]1C/C=C2/C(=O)C(Cl)=C[C@@H]2C/C=C\CCCC(=O)O[C@@H](CCCCC)C/C=C2/C(=O)C(Cl)=C[C@@H]2C/C=C\CCCC(=O)O1 | M14 melanoma | -61.5 |
| Cc1cc(C)n(Cc2cc(C(C)(C)C)cc(C(C)(C)C)c2)c(=O)c1C#N | M14 melanoma | 89.8 |
| COc1ccc(C2c3ccccc3NC(=O)N2C2CCN(C)CC2)c(OC)c1 (stereo not given) | M14 melanoma | 85.3 |
| O=C(O[C@@H]1Cc2c(O)cc(O)cc2O[C@@H]1c1cc(O)c(O)c(O)c1)c1cc(O)c2c(c1)OCO2 | M14 melanoma | 91.9 |
| CC(C)/C=C/CC[C@](C)(O)[C@H]1CC[C@]2(C)[C@@H]1CC[C@@H]1[C@@]3(C)C/C(=C/c4cccc(C(F)(F)F)c4)C(=O)C(C)(C)[C@@H]3CC[C@]12C | M14 melanoma | 91.5 |
| Cn1c(=O)c2c(ncn2CC(=O)Nc2ccc(S(N)(=O)=O)cc2)n(C)c1=O | M14 melanoma | 97.1 |
| COC(=O)C(Cc1ccccc1)n1cc(COc2nc(Cl)nc(Nc3ccc(Cl)cc3)n2)nn1 (stereo not given) | M14 melanoma | 91.5 |
| O=S(=O)(NCCNc1cc(-c2cn(-c3ccccc3)nc2-c2cccc(O)c2)ccn1)c1ccc(Cl)cc1 | M14 melanoma | 23.5 |
| CCCCC[C@H]1C/C=C2/C(=O)C=C[C@@H]2C/C=C\CCCC(=O)O[C@@H](CCCCC)C/C=C2/C(=O)C=C[C@@H]2C/C=C\CCCC(=O)O1 | M14 melanoma | -82.8 |
| CN(C)c1ccc(-c2ccc(-c3ccc(C(=N)N)c(F)c3)s2)cc1 | M14 melanoma | 97.5 |
